target: Recombinant human IL-2 (human, UniProt P60568 21-153); test: cell-based or functional assay
Some binders, each annotated with its measured pSTAT5a,b Ratio of EC50s (Rαβγ/Rβγ), murine cells.
METRIC: pSTAT5a,b Ratio of EC50s (Rαβγ/Rβγ), murine cells

| BINDER | ASSAY RESULT |
| --- | --- |
| XPA.92.099 (antibody, V domains shown, Tested as purified full-length human IgG; also called mAb99; clone 99) VH: QVQLVESGGGLVKPGRSLRLSCAASGFTFNRYAMSWVRQAPGKGLEWVAMISFDGGNQYYTDSVSGRFTISRDNSKTTLFLQMDSLRTEDTAVYYCVRSPAGDWVAYFDYWGQGTLVTVSS VL: DIQMTQSPSSLSASIGDRVTIPCQASEDISNHLSWYQQKPGKAPKPLIFDASDLETGVPSRFSGSGSGTDFALTISSLRPDDFATYYCHQYHDYPSYTFGHGTKLEIKR | 17 |
| XPA.92.042 (antibody, V domains shown, Tested as purified full-length human IgG) VH: EVQLVQSGTEVKKAGDSLKISCKGSGYNFDTYWIGWVRQMPGRGLEWMGTIYPADSDTRYSPSFQGQVTMSADKSISTAYLQWGSLRASDTAMYYCARFSSSAYDIWGQGTMVTVSS VL: SYELTQPPSVSVSPGQTARITCSGDALPRKFAYWYQQKSGQAPVLVIYQDTKRPSGIPERFSGSSSGTTVTLTISDVQAEDDADYYCQSADRSDSYVFGAGTKLTVLG | 57 |
| XPA.92.019 (antibody, V domains shown, Tested as purified full-length human IgG; also called mAb19) VH: EVQLVESGGGLVQPGRSLRLSCAASGFTFSYYGMHWVRQAPGKGLEWVADISNDGSNKYYADSVKGRFTISRDNSKTTLYLQMNSLRPEDTAVYYCATPYYDSSGLDYWGQGTLVTVSS VL: SYELTQPPSVSVSPGQTARITCSGDALPKRFAYWYQQKAGQAPVLVIYEDNKRPSGIPETLSGSSSGTTATLTISGAQEEDEADYYCYSTDNTGGLWVFGGGTKLTVLG | 35 |
